B1: tRNA (parent)
chain: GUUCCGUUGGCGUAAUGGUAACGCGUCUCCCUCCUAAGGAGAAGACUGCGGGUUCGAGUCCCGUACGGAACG

variants of: B1; assay: yeast fitness relative to wild type (ratio to wild type); higher = fitter; tRNA-Arg(CCU), competitive growth, 37 C, YPD
Variants at the floor of the assay were thinned out.
READOUT_NAME: yeast fitness

GUAGCGUUGGCGUAAUGGUAACGCGUCUCCCUCCUAAGGAGGAGACUGCGGGUUCGAGUCCCGUACGGAACG [U3A C4G A42G] : ≤ 0.5
GUUCCGUUGGCGUAAUGGUAACGCGUUUCCCACCUAAGGAGAAGACUGCGGAUUCGAGUCCCGUAUCGAACG [C27U U32A G52A C66U G67C] : ≤ 0.5
GUGCCGUUGGCGUAAUGGUAACGCGUCUCGCUCCUAAGGCGAAGAUUGUGGGUUCGAGUCCCGUACGCAACG [U3G C30G A40C C46U C49U G68C] : ≤ 0.5
GAUCCGUUGGUGUAAUGGGAACGCGUCUCCCUCCUAAGGAGUAGACUACGGGUUCGAGUCCCGUACGGAACG [U2A C11U U19G A42U G48A] : ≤ 0.5
GUUCGGUUGGCGUAAUGGUAACGCGUCUCUCUCCUAAGGGGAAGACUGCGGGUUUGAGUCCCGUACGGAACG [C5G C30U A40G C55U] : ≤ 0.5
GUUCCGUUGGCGGAAUUGUAACGCGUCACCCUCCUAAGGACAAGACUGCGGGUUCGAGUCCCGGACGGAACG [U13G G17U U28A G41C U64G] : ≤ 0.5
GUUCCGUUGGUGUAAUGGUAACGCGUCUCCCUCCUAAGGAGAAGACUGCGGGCUCGCGUCCCGUACGGAACG [C11U U53C A57C] : ≤ 0.5
GUUCCGUUGGCGUAAUGGUAACGCGUCGCCAUCCUAAGGAGAAGACUGCGGGUUCGAGUCUCGUACGGAACG [U28G C31A C61U] : ≤ 0.5
GUUCCGUUGGCGUAAUGGUAACGCGUCUCCCUCUUAAGGAGAAGACUGCGUGUACGAGUUCCGUCCGGAACG [C34U G51U U54A C60U A65C] : ≤ 0.5
GUUCCGUUGGCGUAAUGGUAACGCGUCUCGCUCCUAGGGAGAAGACUGCGGGUUCGAGUCCCGUGCGGAACG [C30G A37G A65G] : ≤ 0.5
GUUCCGUUGGCGUAAUGGUAACGCGUCUCCCUCCUAAGGAGUAGACUGCGAGUUCGAGUGCCAUACGGAACG [A42U G51A C60G G63A] : ≤ 0.5
GUUCCAUUGGCGUAAUGGUAACGCGUCUCCCUCCUCAGGUGAAGACUGCGGGUUCGAGUCCCGUACGGAACG [G6A A36C A40U] : ≤ 0.5

Numbers sourced from the RNAGym collection of RNA variant scans (doi:10.1126/science.aae0568).
